Taken from PubChem BioAssay.

Study system: Torsin-1A (Homo sapiens) (UniProt O14656)
Sequence (O14656 whole entry, looked up): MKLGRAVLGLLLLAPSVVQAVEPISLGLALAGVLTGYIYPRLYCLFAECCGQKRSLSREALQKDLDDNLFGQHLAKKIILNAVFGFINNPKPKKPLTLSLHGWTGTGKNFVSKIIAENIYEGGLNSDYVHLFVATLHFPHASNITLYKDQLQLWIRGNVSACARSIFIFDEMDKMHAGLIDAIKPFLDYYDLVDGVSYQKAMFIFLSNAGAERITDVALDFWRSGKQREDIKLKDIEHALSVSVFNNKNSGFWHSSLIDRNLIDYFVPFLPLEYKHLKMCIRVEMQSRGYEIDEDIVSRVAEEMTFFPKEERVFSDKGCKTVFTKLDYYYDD
Test name: TOR1A wild-type binding on microarray – cell lysate, small-molecule microarray, lysate, 635/667 nm, primary screen (AID 1149)
Condition label: COS7 hTOR1A-WT lysate, 635 nm fluorescence, higher = more signal
Attribute measured: composite z-score

[[record]]
compound = "COC(=O)[C@]1(Cc2ccccc2N=[N+]=[N-])N=C(c2ccc(OCCCO)cc2)O[C@@H]1c1ccccc1"
reported = -0.53

[[record]]
compound = "C=CCN1C(=O)[C@@]2(O[C@@H](CCO)[C@H]([Si](C)(C)c3ccc(OC)cc3)[C@H]2C)c2cc(NC(=O)[C@H](C)O)ccc21"
reported = 0.923

[[record]]
compound = "C=C(COC)C(=O)CC[C@H](OC(=O)c1ccccc1-c1ccccc1C(=O)O)c1ccc(OCCO)cc1"
reported = 2.29

[[record]]
compound = "CCOc1cc(C(O)C2C=CC3C(=O)NC(=O)C3N2Nc2ccccn2)ccc1O (configuration not stated)"
reported = -0.0106

[[record]]
compound = "COCCOC(=O)N1C(=O)[C@@]2(c3cc(C#CCNC(N)=O)ccc31)[C@H](C(N)=O)[C@H]1C(=O)O[C@H](c3ccccc3)[C@H](c3ccccc3)N1[C@@H]2c1ccc(OCCO)cc1"
reported = 0.532

[[record]]
compound = "COCCOC(=O)N1C(=O)[C@@]2(c3cc(C#CCC(C(=O)OC)C(=O)OC)ccc31)[C@H](c1ccc(OCCO)cc1)N1[C@H](c3ccccc3)[C@H](c3ccccc3)OC(=O)[C@H]1[C@@H]2C(N)=O"
reported = 0.337

[[record]]
compound = "O=C1c2ccccc2[C@](Cc2ccccc2I)(C(=O)NC2CC2)[C@H](c2ccc(CO)cc2)N1Cc1ccccc1Cl"
reported = 0.501


###

Test name: change in splice reporter luminescence, either direction, cell-based, HEK293, spliceosome inhibition project, primary screen (AID 1101);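 also: HEK293 cells carrying a splicing-competent luciferase reporter gene; test concentration not given here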
Condition label: HEK293 splicing luciferase reporter, 24 h, higher = more signal, called active from +8 up or from −8 down
Could you label it 1.0 if measured z-score is -1 or higher, and 0.0 otherwise?

[[record]]
molecule = "CC1C=C(CCCO)C=C(C(=O)OCCS(C)(=O)=O)C(C(=O)OCCS(C)(=O)=O)=CN1Cc1cccc(OC(F)(F)F)c1 (configuration not stated)"
label = 1.0

[[record]]
molecule = "C=CC[C@@]1(C(=O)NCC(O)CO)N=C(c2ccc(OCCCO)cc2)O[C@@H]1c1ccccc1 (some centres not stated)"
label = 1.0

[[record]]
molecule = "COC(=O)[C@@]1(Cc2ccc(OC)cc2)[C@H]2c3cc(C(=O)N4CCCC4)n(CCF)c3C[C@H]2CN1C(=O)c1ccccc1"
label = 0.0

[[record]]
molecule = "COCCOC(=O)N1C(=O)[C@@]2(c3ccccc31)[C@H](c1ccc(OCCO)cc1)N1[C@H](c3ccccc3)[C@H](c3ccccc3)OC(=O)[C@H]1[C@@H]2C(=O)NC[C@H](O)c1ccccc1"
label = 1.0

[[record]]
molecule = "CCOC(=O)C[C@H]1[C@H](OC(=O)Cc2ccc3c(c2)OCO3)[C@@H](NC(=O)c2ccccc2)c2cc(OCCCO)ccc2N1C(=O)c1ccc2ccccc2n1"
label = 0.0

[[record]]
molecule = "CC(C)c1ccc(NN2C(C(O)c3cccs3)C=CC3C(=O)N(c4ccccc4)C(=O)C32)cc1 (configuration not stated)"
label = 1.0

